- testedOn: UniProt:Q96LD8
- Sequence (Q96LD8 whole entry): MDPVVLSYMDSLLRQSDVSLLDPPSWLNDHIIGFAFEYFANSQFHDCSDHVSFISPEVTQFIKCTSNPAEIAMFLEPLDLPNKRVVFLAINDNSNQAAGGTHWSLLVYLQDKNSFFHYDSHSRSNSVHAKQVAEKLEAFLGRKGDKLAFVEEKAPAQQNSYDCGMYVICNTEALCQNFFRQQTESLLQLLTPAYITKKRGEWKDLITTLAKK
- Type: functional
Calls of active or inactive are those of the source.
Outcomes you can answer with include only these: y (active), n (inactive)

1) Cc1ccc2c(c1N)C(=O)c1ccccc1C2=O : n

Query: Which outcome did this test record for the molecule "Nc1ccccc1C#Cc1ccc([N+](=O)[O-])cc1" ?
Response: y

Query: Entry "CCOC(=O)c1c(C)[nH]c(N=Nc2cccc(C)c2)c1C" : call = ?
Response: y

Query: Please share the test call associated with "CCCc1ccc(OC(=O)c2ccc(O)cc2Cl)cc1" .
Response: y

Query: Name the outcome recorded for "Cc1ccc(-n2nnc(-c3cccnc3Cl)n2)cc1" in the assay.
Response: n
